Below, each entry is listed with its recorded TGI.
system: K-562 leukemia; assay: NCI tumour cell line growth inhibition, 48 h
result-type: TGI

| molecule | measured-value |
| --- | --- |
| CNc1ccc(C(=O)CC(O)CCC(C)C2OC(=O)CC(O)CC(=O)CC(O)CC(O)CC(O)CC(O)CC3(O)CC(O)C(C(=O)NCCN(C)C)C(CC(OC4OC(C)C(O)C(NC(=O)CN5CCN(CCO)CC5)C4O)/C=C/C=C/C=C/C=C\C=C/C=C/C=C/C2C)O3)cc1 (centres undefined) | 1.35 µM |
| Cc1ccc(C2(c3ccc(C)cc3)SC(=C(C#N)C#N)c3ccccc32)cc1 | > 100 µM |
| c1ccc(-c2c(-c3ccccc3)[n+](Cc3ccc4ccccc4c3)c(-c3cccc4ccccc34)n2Cc2ccc3ccccc3c2)cc1 | > 100 µM |
| O=P(O)(O)C(NCC(O)CN1CCOCC1)P(=O)(O)O (centres undefined) | > 100 µM |
| CC1CSC(=S)N1C(=O)N1C(=S)SCC1C (centres undefined) | 60.9 µM |
| CC1=CN(c2ccccc2)S2=C1c1sc3c(c1N2c1ccc(Br)cc1)CCCC3 (centres undefined) | > 100 µM |
| C=CCCC1CCCNC1=S (centres undefined) | > 100 µM |
| Cc1cc(-c2ncc(-c3cccnc3)cc2/C=C/c2ccccc2)cnc1-c1cccnc1 | > 100 µM |
| COC(=O)c1cc(-c2ccc(OC)c(OC)c2)oc1-c1ccc(OC)c(OC)c1 | > 100 µM |
